B1: Myocardin, residues 363 to 406; numbered along this chain, Q8IZQ8 (parent)
chain: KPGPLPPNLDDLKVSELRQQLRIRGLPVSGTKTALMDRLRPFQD

Variants of: B1
Assay: abundance fitness (aPCA) (normalised: wild type 0, dead -1); higher = more abundant; growth selection in yeast, the domain comes from the species named
Details: Homo sapiens
Class true: abundance fitness at least -0.3. Class false: abundance fitness below -0.3.

Confirm if abundance fitness reported for the variant KPGPLPPNLDDLKVSELRQQLRIRGLPVSGTKTALMDRLPPFQD [R40P] is -0.3 or above.
false

Threshold query (abundance fitness >= -0.3) on KPGPLPPNLDDLKVSWLRQQLRIRGLPVSGTKTALMDRLRPFQD [E16W]
false

In plain terms: is recorded abundance fitness at least -0.3 for KPGPLPPNLDDLKVSELRQQLRIRGLPVSGTKTALMDRLRPFQG [D44G] ?
true

Could you verify whether the entry KPGPLPPNLDDLKVSELRQQLRQRGLPVSGTKTALMDRLRPFQD [I23Q] shows abundance fitness of no less than -0.3?
true

Test whether the variant KPGPLMPNLDDLKVSELRQQLRIRGLPVSGTKTALMDRLRPFQD [P6M] records abundance fitness of -0.3 or higher.
true

# bool: abundance fitness of KPGPLPPNLDDLKVSELRQQDRIRGLPVSGTKTALMDRLRPFQD [L21D] >= -0.3
false

Answer whether abundance fitness of KPGPLPPNLDDLKVSELRQQLRIRGLPVSGTKTALMYRLRPFQD [D37Y] is greater than or equal to -0.3.
true

// inclusive: abundance fitness at least -0.3? input: KPGPLPPNLDDLKVSETRQQLRIRGLPVSGTKTALMDRLRPFQD [L17T]
false

Decide: is the reported value of abundance fitness for KPGPLPPNLDDLKVSELRQQLRIRGLPVSGTKTALLDRLRPFQD [M36L] equal to or greater than -0.3?
false

Is it the case that KPGPDPPNLDDLKVSELRQQLRIRGLPVSGTKTALMDRLRPFQD [L5D] has abundance fitness reaching or exceeding -0.3?
true

Please check the record TPGPLPPNLDDLKVSELRQQLRIRGLPVSGTKTALMDRLRPFQD [K1T] and state if its abundance fitness is at or above -0.3.
false

Is abundance fitness at least -0.3? Consider KPGPLPPNLDDLKVSELRQQLRIRGLPVSGTKTALMDRTRPFQD [L39T]
false

Identify whether the reported abundance fitness of the following variant is -0.3 or greater: KPGPLPPNLDDLKVSELRQQLRIRGLPVSGTKTALMDRIRPFQD [L39I]
false

Is the recorded value of abundance fitness equal to or greater than -0.3 for this variant? KPGPLPPNLDDLKVSELRQQLRIRGLPVSGTKTALMFRLRPFQD [D37F]
false

Form field: abundance fitness at least -0.3? Entry: KPGPLPPNLDDLKVSELRQQLRIRGLPVSGTKTALPDRLRPFQD [M36P]
false

Could you tell me if the measured abundance fitness of KPGPLPPNLDDLKVSELRQQLRIRGLPVSGTKTALIDRLRPFQD [M36I] reaches -0.3 or more?
true

Quick check: does KPGPLPPNLDDLKVSELRQQLRIYGLPVSGTKTALMDRLRPFQD [R24Y] have abundance fitness greater than or equal to -0.3?
false

Exam item: decide whether the reported abundance fitness for KFGPLPPNLDDLKVSELRQQLRIRGLPVSGTKTALMDRLRPFQD [P2F] is at least -0.3.
true

Form field: abundance fitness at least -0.3? Entry: KPGPLPPNEDDLKVSELRQQLRIRGLPVSGTKTALMDRLRPFQD [L9E]
false

Please tell me: is the variant KPGPLPPNLDDLKVSELRQQLMIRGLPVSGTKTALMDRLRPFQD [R22M] at or over -0.3 in terms of abundance fitness?
false

API: above_or_equal(metric=abundance fitness, cutoff=-0.3) for item KPGPLPPNLDDLKVSELRQQLRIRGLPVPGTKTALMDRLRPFQD [S29P]
false

Decide: is the reported value of abundance fitness for KPGPLPPNLDDLKVSELRQQLRIRGLPVSGTKTGLMDRLRPFQD [A34G] equal to or greater than -0.3?
false

Could you verify whether the entry KPGPLPPNLDDLKVSELAQQLRIRGLPVSGTKTALMDRLRPFQD [R18A] shows abundance fitness of no less than -0.3?
false

Would you say KPGPLPPNLDDLKVSELRQQLRIRGLPTSGTKTALMDRLRPFQD [V28T] shows abundance fitness at minimum -0.3?
true

Hi, just wondering whether KPGPLPPNRDDLKVSELRQQLRIRGLPVSGTKTALMDRLRPFQD [L9R] shows abundance fitness of -0.3 or higher.
false

Reported abundance fitness reaches at least -0.3 for WPGPLPPNLDDLKVSELRQQLRIRGLPVSGTKTALMDRLRPFQD [K1W] ?
false

Say whether KPGPLPPNLDDLKVSELRQQLRIRGLPVSGTKTALMDRLRPFQS [D44S] shows abundance fitness of -0.3 or more.
false

In plain terms: is recorded abundance fitness at least -0.3 for KPGPLPPNLDDLKVSELRQQLRGRGLPVSGTKTALMDRLRPFQD [I23G] ?
true

Quick check, abundance fitness >= -0.3? KPGPLPPNLDDLKVSELRQQLRIGGLPVSGTKTALMDRLRPFQD [R24G]
false

Confirm if abundance fitness reported for the variant KPGPLPPNLDNLKVSELRQQLRIRGLPVSGTKTALMDRLRPFQD [D11N] is -0.3 or above.
true

Quick check: does KPGPLPPNLDDLKVSELRQQLRIRGLPVSGTCTALMDRLRPFQD [K32C] have abundance fitness greater than or equal to -0.3?
false

Could you verify whether the entry KPGPLPPNLDDLKVSEWRQQLRIRGLPVSGTKTALMDRLRPFQD [L17W] shows abundance fitness of no less than -0.3?
false

Form field: abundance fitness at least -0.3? Entry: KPGPLPPNLDDLKVSELRQQLRIRQLPVSGTKTALMDRLRPFQD [G25Q]
false
